The origin of these recorded values is patent US20200262877A1.

Target: Nav1.7 (Homo sapiens, UniProt Q15858)
Construct: host or cells: HEK293 or CHO
Sequence (Q15858 whole entry): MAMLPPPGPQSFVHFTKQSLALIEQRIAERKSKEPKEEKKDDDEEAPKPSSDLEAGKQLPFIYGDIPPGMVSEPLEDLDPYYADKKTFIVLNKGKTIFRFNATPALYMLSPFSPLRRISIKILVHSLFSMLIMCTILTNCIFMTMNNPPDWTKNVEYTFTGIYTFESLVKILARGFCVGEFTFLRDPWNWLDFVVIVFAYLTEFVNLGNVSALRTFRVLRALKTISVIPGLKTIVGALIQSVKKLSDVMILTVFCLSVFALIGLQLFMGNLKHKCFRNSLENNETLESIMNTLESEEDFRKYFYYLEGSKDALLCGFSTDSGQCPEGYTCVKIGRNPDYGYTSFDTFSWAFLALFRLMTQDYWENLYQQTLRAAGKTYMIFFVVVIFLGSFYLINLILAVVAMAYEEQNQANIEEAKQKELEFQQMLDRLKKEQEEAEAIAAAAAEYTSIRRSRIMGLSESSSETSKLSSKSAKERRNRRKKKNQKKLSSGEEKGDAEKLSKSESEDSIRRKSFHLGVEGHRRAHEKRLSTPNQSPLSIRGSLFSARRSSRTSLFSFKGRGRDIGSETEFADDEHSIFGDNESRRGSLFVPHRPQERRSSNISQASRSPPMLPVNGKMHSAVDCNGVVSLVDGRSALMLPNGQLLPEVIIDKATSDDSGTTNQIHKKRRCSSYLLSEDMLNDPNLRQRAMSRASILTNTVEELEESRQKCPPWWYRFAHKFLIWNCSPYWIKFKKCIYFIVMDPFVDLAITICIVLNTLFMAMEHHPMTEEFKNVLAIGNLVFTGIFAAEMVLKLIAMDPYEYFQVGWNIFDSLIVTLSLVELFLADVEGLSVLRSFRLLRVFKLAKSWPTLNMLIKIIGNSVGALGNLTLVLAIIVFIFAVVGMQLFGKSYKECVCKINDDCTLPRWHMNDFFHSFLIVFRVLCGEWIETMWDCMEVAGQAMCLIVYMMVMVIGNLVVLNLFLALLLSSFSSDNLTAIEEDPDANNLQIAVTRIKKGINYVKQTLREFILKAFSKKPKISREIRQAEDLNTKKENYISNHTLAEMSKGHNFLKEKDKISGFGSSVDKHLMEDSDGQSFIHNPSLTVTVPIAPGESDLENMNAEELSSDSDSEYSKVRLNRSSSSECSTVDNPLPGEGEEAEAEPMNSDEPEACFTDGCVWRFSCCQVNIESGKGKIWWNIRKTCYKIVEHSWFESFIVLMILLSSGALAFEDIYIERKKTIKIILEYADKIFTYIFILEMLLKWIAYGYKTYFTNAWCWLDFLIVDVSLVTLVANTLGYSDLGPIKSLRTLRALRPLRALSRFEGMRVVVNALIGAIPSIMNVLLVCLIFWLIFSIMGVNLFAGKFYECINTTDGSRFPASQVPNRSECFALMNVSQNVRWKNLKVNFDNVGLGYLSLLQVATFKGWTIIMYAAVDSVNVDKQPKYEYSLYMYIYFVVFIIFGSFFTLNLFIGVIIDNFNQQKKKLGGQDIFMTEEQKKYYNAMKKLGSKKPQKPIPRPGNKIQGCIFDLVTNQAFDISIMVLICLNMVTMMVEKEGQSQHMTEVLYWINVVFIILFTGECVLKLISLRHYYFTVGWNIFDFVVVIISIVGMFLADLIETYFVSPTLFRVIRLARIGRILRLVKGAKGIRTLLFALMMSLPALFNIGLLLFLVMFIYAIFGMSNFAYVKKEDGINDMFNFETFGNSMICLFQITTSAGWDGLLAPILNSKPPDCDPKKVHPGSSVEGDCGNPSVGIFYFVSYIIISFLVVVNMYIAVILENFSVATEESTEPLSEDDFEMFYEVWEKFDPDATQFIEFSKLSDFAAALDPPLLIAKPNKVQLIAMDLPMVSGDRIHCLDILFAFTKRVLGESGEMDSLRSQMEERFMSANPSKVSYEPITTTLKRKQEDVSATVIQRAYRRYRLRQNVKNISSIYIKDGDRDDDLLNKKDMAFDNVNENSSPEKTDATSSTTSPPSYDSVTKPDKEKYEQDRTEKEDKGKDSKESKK
Assay: cell-based
Format: cell-based
Settings: peptide at 0.2 μM; first of two Nav1.7 columns (probably TP1); 100% = no change
measurement label: Activity of Nav1.7 with peptide, expressed as a percentage of the reference compound (%)
Numbers only, in %.

Could you report Activity of Nav1.7 with peptide, expressed as a percentage of the reference compound for every entry in the following list?
1. 2 (GSEVIRCSGSKQCYGPCKQQTGCTNSKCMNKVCKCYGCG) [compound 2]
2. 16 (GSQFCGTNGKPCVNGQCCGALRCVVTYHYADGVCLKMNP) [compound 16]
3. 5 (GSGVPINVKCRGSRDCLDPCKKAGMRFGKCINSKCHCTP) [compound 5]
4. 24 (GSSCAKPGEMCMRIKCCDGQCGCNRGTGRCFCK) [compound 24]
5. 23 (GSCIGEGVPCDENDPRCCFGLVCLKPTLHGIWYKSYYCYKK) [compound 23]
6. 20 (GSQIDTNVKCSGSSKCVKICIDRYNTRGAKCINGRCTCYP) [compound 20]

1: 89; 2: 86; 3: 98; 4: 84; 5: 89; 6: 92

Could you report Activity of Nav1.7 with peptide, expressed as a percentage of the reference compound for every entry in the following list?
1. 22 (GSSDYCSNDFCFFSCRRDRCARGDCENGKCVCKNCHLN) [compound 22]
2. 15 (GSAVCNLKRCQLSCRSLGLLGKCIGDKCECVKHG) [compound 15]
3. 10 (GSQVQTNVKCQGGSCASVCRREIGVAAGKCINGKCVCYRN) [compound 10]
4. 25 (GSACLAEYQKCEGSTVPCCPGLSCSAGRFRKTKLCTK) [compound 25]

1. 79
2. 91
3. 105
4. 66

Could you report Activity of Nav1.7 with peptide, expressed as a percentage of the reference compound for every entry in the following list?
1. 9 (GSGCFGYKCDYYKGCCSGYVCSPTWKWCVRPGPGR) [compound 9]
2. 19 (GSQFTDVKCTGSKQCWPVCKQMFGKPNGKCMNGKCRCYS) [compound 19]

[108, 91]

Could you report Activity of Nav1.7 with peptide, expressed as a percentage of the reference compound for every entry in the following list?
1. 32 (GSQDKCKKVYENYPVSKCQLANQCNYDCKLDKHARSGECFYDEKRNLQCICDYCEY) [compound 32]
2. 21 (GSAEIIRCSGTRECYAPCQKLTGCLNAKCMNKACKCYGCV) [compound 21]

[96, 112]

Could you report Activity of Nav1.7 with peptide, expressed as a percentage of the reference compound for every entry in the following list?
1. 4 (GSSCAKPRENCNRMNILCCRGECVCPTFGDCFCYGD) [compound 4]
2. 30 (GSQVSTNKKCSNTSQCYKTCEKVVGVAAGKCMNGKCICYP) [compound 30]
3. 29 (GSVFINVKCRGSPECLPKCKEAIGKSAGKCMNGKCKCYP) [compound 29]

1. 95
2. 103
3. 97

Could you report Activity of Nav1.7 with peptide, expressed as a percentage of the reference compound for every entry in the following list?
1. 17 (GSRPTDIKCSASYQCFPVCKSRFGKTNGRCVNGLCDCF) [compound 17]
2. 34 (GGYSRCQLQGFNCVVRSYGLPTIPCCRGLTCRSYFPGSTYGRCQRY) [compound 34]

[66, 102]
